src = paper PMC9469097

- method: Stability tests for target pentacyclic triterpenoid acids
- measurement context: nominal level 128.00 nmol/L
Here the recorded Stability, -20℃ freeze-thaw (3 times, %) is given for each entry.
All answers are understood in %, so give the number only.

Guide cases for Stability, -20℃ freeze-thaw (3 times, %), answers given:
Quick one: Stability, -20℃ freeze-thaw (3 times, %) for CC1(C)CC[C@]2(C(=O)O)CC[C@]3(C)C(=CC[C@@H]4[C@@]5(C)CCC(=O)C(C)(C)[C@@H]5CC[C@]43C)[C@@H]2C1 [oleanonic acid] ?
113.69

Can you check CC1(C)CC[C@]2(C(=O)O)CC[C@]3(C)C(=CC[C@@H]4[C@@]5(C)CC[C@H](O)C(C)(C)[C@@H]5CC[C@]43C)[C@@H]2C1 [oleanolic acid] next?
105.16

Further cases:
What Stability, -20℃ freeze-thaw (3 times, %) value was documented for this compound, C=C(C)[C@@H]1CC[C@]2(C(=O)O)CC[C@]3(C)[C@H](CC[C@@H]4[C@@]5(C)CC[C@H](O)C(C)(C)[C@@H]5CC[C@]43C)[C@@H]12 [betulinic acid] ?
110.33

Also C=C(C)[C@@H]1CC[C@]2(C(=O)O)CC[C@]3(C)[C@H](CC[C@@H]4[C@@]5(C)CC[C@@H](O)C(C)(C)[C@@H]5CC[C@]43C)[C@@H]12 [epibetulinic acid] ?
110.52
